target system: wild type human HSD17B13 (Homo sapiens (Human))
protocol: HEK_Beta-Est LCMS_IC50_Tekcel, whole-cell HEK-HSD17B13 inhibition assay, estrone production by LCMS
measurement conditions: geometric mean, HEK cells stably expressing wild type human HSD17B13, 25 μM FAC beta-estradiol, read-out: HEK_Beta-Est LCMS_IC50—Tekcel GMean IC50
experimental readout: IC50 (nM)
The reply should be a number in nM, with the unit left off.

molecule	target system	IC50, nM
O=C(NC[C@H]1CC[C@H](n2cc3ccc(-n4cncn4)cc3n2)CC1)c1cc(F)c(O)c(F)c1F	wild type human HSD17B13 (Homo sapiens (Human))	420
CC(C)(C)OC(=O)N[C@]12CC[C@](CNC(=O)c3cc(F)c(O)c(F)c3)(CC1)CC2	wild type human HSD17B13 (Homo sapiens (Human))	480
COc1cc2cn([C@H]3CC[C@H](CNC(=O)c4cc(F)c(O)c(F)c4)CC3)nc2cn1	wild type human HSD17B13 (Homo sapiens (Human))	440

Which IC50 is listed for Cn1cc(-c2cc3cn([C@H]4CC[C@H](CNC(=O)c5cc(F)c(O)c(F)c5)CC4)nc3cn2)cn1 ?
350

Do the same for COc1cnc(-c2noc([C@]34CC[C@](CNC(=O)c5cc(F)c(O)c(F)c5F)(CC3)CC4)n2)cn1 please
170

Now consider O=C(NC[C@]12CC[C@@](n3cc4ccc(-c5ncccn5)cc4n3)(CC1)CC2)c1cc(F)c(O)c(F)c1F and answer again.
180

Next record, please: Cc1ccc(-c2noc([C@]34CC[C@](CNC(=O)c5cc(F)c(O)c(F)c5)(CC3)CC4)n2)nn1
460

###

Here, each record is paired with measured pIC50 data.
target system: wild type human HSD17B13 (Homo sapiens (Human), UniProt Q7Z5P4)
Sequence (Q7Z5P4 20-300): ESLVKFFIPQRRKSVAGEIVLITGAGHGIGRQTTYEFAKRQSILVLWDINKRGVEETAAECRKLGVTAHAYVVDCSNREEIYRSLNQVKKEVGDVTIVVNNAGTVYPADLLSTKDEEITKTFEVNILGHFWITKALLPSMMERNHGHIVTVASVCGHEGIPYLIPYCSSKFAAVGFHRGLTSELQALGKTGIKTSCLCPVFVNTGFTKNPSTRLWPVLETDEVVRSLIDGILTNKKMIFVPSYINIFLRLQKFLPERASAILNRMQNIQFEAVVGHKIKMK
protocol: HEK_Beta-Est LCMS_IC50_Tekcel, whole-cell HEK-HSD17B13 inhibition assay, estrone production by LCMS
measurement conditions: geometric mean, HEK cells stably expressing wild type human HSD17B13, 25 μM FAC beta-estradiol, read-out: HEK_Beta-Est LCMS_IC50—Tekcel GMean IC50
Where a name gives a salt, the structure may show the parent alone.
Convention used: pIC50 is expressed as -log10 of the molar concentration.

compound	pIC50
O=C(NC[C@H]1CC[C@H](n2cc3ccc(F)cc3n2)CC1)c1cc(F)c(O)c(F)c1 [Example 16, ammonium salt]	6.51

Data request, read-out pIC50, for O=C(NC[C@H]1CC[C@H](n2cc3ccc(-c4ccccc4)cc3n2)CC1)c1cc(F)c(O)c(F)c1
6.57

One more compound: O=C(NC[C@]12CC[C@](n3cc4ccccc4n3)(CC1)CC2)c1cc(F)c(O)c(F)c1
6.66

###

// values below are reported pIC50
target system: wild type human HSD17B13 (Homo sapiens (Human))
protocol: HEK_Beta-Est LCMS_IC50_Tekcel, whole-cell HEK-HSD17B13 inhibition assay, estrone production by LCMS
measurement conditions: geometric mean, HEK cells stably expressing wild type human HSD17B13, 25 μM FAC beta-estradiol, read-out: HEK_Beta-Est LCMS_IC50—Tekcel GMean IC50
Where a name gives a salt, the structure may show the parent alone.
Just the number, please; pIC50 means minus log10 of the concentration in mol/L.

compound	target system	experimental readout	numeric value
O=C(NC[C@]12CC[C@](c3nc(-c4ccc(C(F)(F)F)nn4)no3)(CC1)CC2)c1ccc(O)c(F)c1F	wild type human HSD17B13 (Homo sapiens (Human))	pIC50	6.33
Cc1ccnc(-c2ccc3cn([C@H]4CC[C@H](CNC(=O)c5cc(F)c(O)c(F)c5)CC4)nc3c2)n1	wild type human HSD17B13 (Homo sapiens (Human))	pIC50	6.70

// next item, pIC50 requested
Give its pIC50 value. Item: COc1ncc(-c2cc3cn([C@H]4CC[C@H](CNC(=O)c5cc(F)c(O)c(F)c5)CC4)nc3cn2)cn1 [Example 201, trifluoroacetate salt]
6.46

###

target system: UniProt:Q7Z5P4
protocol: HEK_Beta-Est LCMS_IC50_Tekcel, whole-cell HEK-HSD17B13 inhibition assay, estrone production by LCMS
measurement conditions: geometric mean, HEK cells stably expressing wild type human HSD17B13, 25 μM FAC beta-estradiol, read-out: HEK_Beta-Est LCMS_IC50—Tekcel GMean IC50
Counter-ions that a name gives are not always drawn.
experimental readout: pIC50
Keep it numeric: pIC50 is minus log10 of the concentration in mol/L.

compound	target system	pIC50
O=C(NC[C@H]1CC[C@H](n2cc3cc(-c4cncnc4)ccc3n2)CC1)c1cc(F)c(O)c(F)c1 [Example 157, trifluoroacetate salt]	UniProt:Q7Z5P4	6.57
O=C(NC[C@H]1CC[C@H](n2cc3cc(Cl)ncc3n2)CC1)c1cc(F)c(O)c(F)c1	UniProt:Q7Z5P4	6.40
O=C(NC[C@H]1CC[C@H](n2cc3cc(OCc4cccc(C(F)(F)F)n4)ncc3n2)CC1)c1cc(F)c(O)c(F)c1	UniProt:Q7Z5P4	6.42

Please find the next compound below.
Need pIC50 of COc1cccc2nn([C@H]3CC[C@H](CNC(=O)c4cc(F)c(O)c(F)c4)CC3)cc12 , thanks.
6.51

###

# pIC50 values compiled below
target system: wild type human HSD17B13 (Homo sapiens (Human), UniProt Q7Z5P4)
protocol: HEK_Beta-Est LCMS_IC50_Tekcel, whole-cell HEK-HSD17B13 inhibition assay, estrone production by LCMS
measurement conditions: geometric mean, HEK cells stably expressing wild type human HSD17B13, 25 μM FAC beta-estradiol, read-out: HEK_Beta-Est LCMS_IC50—Tekcel GMean IC50
Structures can show the parent of a compound that is named as a salt.
# pIC50: negative log10 of molar concentration; output just the value

Some solved cases for reference:
compound	target system	pIC50
CCn1cc(-c2ccc3cn([C@H]4CC[C@H](CNC(=O)c5cc(F)c(O)c(F)c5)CC4)nc3c2)cn1	wild type human HSD17B13 (Homo sapiens (Human), UniProt Q7Z5P4)	6.96
O=C(NC[C@H]1CC[C@H](c2nc(-c3ccc(C(F)(F)F)nc3)no2)CC1)c1cc(F)c(O)cc1F	wild type human HSD17B13 (Homo sapiens (Human), UniProt Q7Z5P4)	6.33

What value of pIC50 has been reported for the following compound? O=C(NC[C@]12CC[C@](c3nc(-c4ccc(C(F)(F)F)nc4)no3)(CC1)CC2)c1cc(F)c(O)c(F)c1
6.66

Further, for Cn1ncc(-c2ccc3cn([C@H]4CC[C@H](CNC(=O)c5cc(F)c(O)c(F)c5)CC4)nc3c2)c1C(F)(F)F ?
6.35

And the next one, O=C(NC[C@H]1CC[C@H](n2cc3ccc(-c4cnn5ccccc45)cc3n2)CC1)c1cc(F)c(O)c(F)c1 ?
6.70

Another: Cn1nccc1-c1ccc2cn([C@H]3CC[C@H](CNC(=O)c4cc(F)c(O)c(F)c4)CC3)nc2c1
6.46

Can you check Cc1ccc(-c2ccc3cn([C@H]4CC[C@H](CNC(=O)c5cc(F)c(O)c(F)c5)CC4)nc3c2)nn1 next?
6.43

Now this one: O=C(NC[C@]12CC[C@](n3cc4cc(C(F)(F)F)ccc4n3)(CC1)CC2)c1cc(F)c(O)c(F)c1F
6.36

Param item: Cc1ccc(-c2noc([C@H]3CC[C@H](CNC(=O)c4cc(F)c(O)c(F)c4F)CC3)n2)nn1
5.64

Next entry: Cc1cccc(-c2ccc3cn([C@H]4CC[C@H](CNC(=O)c5cc(F)c(O)c(F)c5)CC4)nc3c2)n1 [Example 118, trifluoroacetate salt]
6.64

Same lookup for O=C(NC[C@H]1CC[C@H](n2cc3ccc(-c4cnn(CCO)c4)cc3n2)CC1)c1cc(F)c(O)c(F)c1 [Example 160, trifluoroacetate salt] , please.
6.40

Moving on to O=C(NC[C@H]1CC[C@H](n2cc3ccc(-c4cccnc4)cc3n2)CC1)c1cc(F)c(O)c(F)c1
6.77

O=C(NC[C@H]1CC[C@H](n2cc3ccc(-c4nccs4)cc3n2)CC1)c1cc(F)c(O)c(F)c1 , same question.
6.96

Now consider O=C(NC[C@]12CC[C@](c3nc(-c4ccc(C(F)(F)F)nn4)no3)(CC1)CC2)c1cc(F)c(O)c(F)c1F and answer again.
6.66

Provenance of the data: patent US20240150334A1
